The origin of these recorded values is ChEMBL document CHEMBL5108074.

Target protein (sequence): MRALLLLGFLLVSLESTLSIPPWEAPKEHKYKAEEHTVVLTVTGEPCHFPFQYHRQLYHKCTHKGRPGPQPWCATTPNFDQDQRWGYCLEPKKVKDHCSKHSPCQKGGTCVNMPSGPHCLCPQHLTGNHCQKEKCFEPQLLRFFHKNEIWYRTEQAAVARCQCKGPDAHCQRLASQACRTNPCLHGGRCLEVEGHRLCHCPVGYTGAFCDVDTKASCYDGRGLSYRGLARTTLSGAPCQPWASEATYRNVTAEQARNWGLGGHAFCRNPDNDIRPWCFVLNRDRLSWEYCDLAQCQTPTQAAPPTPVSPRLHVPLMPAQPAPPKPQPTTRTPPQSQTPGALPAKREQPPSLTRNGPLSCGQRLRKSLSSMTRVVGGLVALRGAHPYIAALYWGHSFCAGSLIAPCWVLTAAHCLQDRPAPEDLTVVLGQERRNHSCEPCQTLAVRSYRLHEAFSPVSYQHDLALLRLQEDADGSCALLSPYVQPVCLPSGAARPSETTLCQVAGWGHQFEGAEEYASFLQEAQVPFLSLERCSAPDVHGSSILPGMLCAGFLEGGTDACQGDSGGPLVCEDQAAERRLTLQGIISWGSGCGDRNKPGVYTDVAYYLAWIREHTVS
pIC50: −log10 of the molar value.
measured_property: pIC50

                                   compound  observed_measurement
0  COCc1nn(Cc2ccc(Cn3ccccc3=O)cc2)cc1C(=O)NCc1nccc(OC)c1F [SEBETRALSTAT]                < 4.40
